Data credit: ChEMBL document CHEMBL1154688

# target under test: Voltage-gated inwardly rectifying potassium channel KCNH2 (Homo sapiens)
# Sequence (Q12809 whole entry): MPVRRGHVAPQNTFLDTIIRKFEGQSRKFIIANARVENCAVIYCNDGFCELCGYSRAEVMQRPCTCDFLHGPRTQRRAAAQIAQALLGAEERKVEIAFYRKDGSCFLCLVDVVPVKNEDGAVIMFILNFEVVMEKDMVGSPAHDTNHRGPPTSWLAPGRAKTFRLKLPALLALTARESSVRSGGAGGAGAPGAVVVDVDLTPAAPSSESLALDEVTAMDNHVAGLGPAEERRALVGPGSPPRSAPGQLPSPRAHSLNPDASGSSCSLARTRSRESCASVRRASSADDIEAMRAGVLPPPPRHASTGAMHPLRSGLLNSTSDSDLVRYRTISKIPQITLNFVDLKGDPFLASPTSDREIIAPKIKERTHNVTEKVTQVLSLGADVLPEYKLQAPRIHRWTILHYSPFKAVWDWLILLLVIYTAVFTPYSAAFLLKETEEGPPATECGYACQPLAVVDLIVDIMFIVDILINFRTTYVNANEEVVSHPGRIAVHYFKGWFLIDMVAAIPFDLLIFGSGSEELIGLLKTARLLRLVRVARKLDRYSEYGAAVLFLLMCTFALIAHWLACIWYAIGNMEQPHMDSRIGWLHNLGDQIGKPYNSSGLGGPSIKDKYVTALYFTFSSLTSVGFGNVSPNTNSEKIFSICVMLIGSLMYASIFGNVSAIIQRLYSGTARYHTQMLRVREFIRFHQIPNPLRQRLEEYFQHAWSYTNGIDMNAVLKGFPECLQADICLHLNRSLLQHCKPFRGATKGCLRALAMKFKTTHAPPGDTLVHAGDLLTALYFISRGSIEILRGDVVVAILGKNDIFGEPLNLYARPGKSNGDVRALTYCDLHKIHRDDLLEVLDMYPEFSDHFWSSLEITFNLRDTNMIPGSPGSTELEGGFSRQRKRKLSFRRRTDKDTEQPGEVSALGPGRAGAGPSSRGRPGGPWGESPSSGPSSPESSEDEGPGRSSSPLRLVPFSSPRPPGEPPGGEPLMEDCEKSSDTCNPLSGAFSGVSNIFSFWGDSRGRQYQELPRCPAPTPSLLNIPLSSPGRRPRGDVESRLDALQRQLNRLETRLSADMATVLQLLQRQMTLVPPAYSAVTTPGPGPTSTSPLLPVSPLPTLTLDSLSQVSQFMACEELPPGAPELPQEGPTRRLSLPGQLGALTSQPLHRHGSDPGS
# run description: Inhibition of human ERG by patch-clamp technique
Quick list: pIC50 per entry.
Scale: pIC50 equals -log10([C]), with [C] in mol/L.

Observe how each entry below is paired with its result.
>  <compound>
COc1ccc(CCN2C(=O)N(NS(C)(=O)=O)CC2c2ccc(OC(C)C)cc2)cc1 (centres undefined)

>  <target under test>
Voltage-gated inwardly rectifying potassium channel KCNH2 (Homo sapiens)

>  <pIC50>
4.77

$$$$
>  <compound>
COc1ccc(CCN2C(=O)N(NS(C)(=O)=O)CC2c2ccc(C3CC3)cc2)cc1 (centres undefined)

>  <target under test>
Voltage-gated inwardly rectifying potassium channel KCNH2 (Homo sapiens)

>  <pIC50>
5.08

$$$$
>  <compound>
COc1ccc(CCN2C(=O)N(NS(C)(=O)=O)C[C@@H]2c2ccc(OC)cc2)cc1

>  <target under test>
Voltage-gated inwardly rectifying potassium channel KCNH2 (Homo sapiens)

>  <pIC50>
4.57

$$$$

Now let's try a different one.
Report value only: pIC50, Voltage-gated inwardly rectifying potassium channel KCNH2 (Homo sapiens), COc1ccc(CCN2C(=O)N(NS(C)(=O)=O)CC2c2ccc(C(F)(F)F)cc2)cc1 (centres undefined)
5.04

* * *

Listed here are compounds together with their documented inhibition at 3 µM.
# target under test: CYP3A4 (Homo sapiens, UniProt P08684)
# Sequence (P08684 whole entry): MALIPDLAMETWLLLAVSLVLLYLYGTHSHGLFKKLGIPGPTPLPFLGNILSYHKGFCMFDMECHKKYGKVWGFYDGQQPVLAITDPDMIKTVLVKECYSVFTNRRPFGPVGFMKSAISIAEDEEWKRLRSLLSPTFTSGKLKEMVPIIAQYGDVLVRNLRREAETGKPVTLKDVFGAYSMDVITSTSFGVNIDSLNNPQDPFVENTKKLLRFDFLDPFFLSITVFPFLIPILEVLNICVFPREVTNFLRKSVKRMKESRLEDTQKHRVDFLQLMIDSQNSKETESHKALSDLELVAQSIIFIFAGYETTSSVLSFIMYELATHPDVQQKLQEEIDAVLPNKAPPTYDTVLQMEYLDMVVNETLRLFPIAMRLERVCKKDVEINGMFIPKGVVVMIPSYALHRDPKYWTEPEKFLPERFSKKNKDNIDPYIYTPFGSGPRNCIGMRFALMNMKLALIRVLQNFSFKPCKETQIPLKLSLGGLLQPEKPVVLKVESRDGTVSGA
# run description: Inhibition of CYP3A4 at 3 uM by fluorescent method
# Type: ADME
Please respond with the number in % and leave the unit unwritten.

The following compounds have reported results that may help.
>  <compound>
COc1ccc(CCN2C(=O)N(NS(C)(=O)=O)C[C@@H]2c2ccc(OC)cc2)cc1

>  <inhibition at 3 µM, %>
50

$$$$
>  <compound>
COc1ccc([C@H]2CN(NS(C)(=O)=O)C(=O)N2CCc2ccc(OC(F)(F)F)cc2)cc1

>  <inhibition at 3 µM, %>
53

$$$$
>  <compound>
COc1ccc(CCN2C(=O)N(NS(=O)(=O)Cc3cccnc3)C[C@@H]2c2ccc(OC)cc2)cc1

>  <inhibition at 3 µM, %>
90

$$$$
>  <compound>
COc1ccc(CCN2C(=O)N(NS(C)(=O)=O)CC2c2ccc(OC(C)C)cc2)cc1 (configuration not stated)

>  <inhibition at 3 µM, %>
53

$$$$
>  <compound>
COc1ccc(CCCN2C(=O)N(NS(C)(=O)=O)C[C@H]2c2ccc(OC)cc2)cc1

>  <inhibition at 3 µM, %>
50

$$$$

Input COc1ccc(CCCN2C(=O)N(NS(C)(=O)=O)C[C@@H]2c2ccc(OC)cc2)cc1 , output reported inhibition at 3 µM.
84

Specify inhibition at 3 µM for COc1ccc(CCN2C(=O)N(NS(C)(=O)=O)C[C@H]2c2ccc(OC)cc2)cc1 and stop.
45

Return value of inhibition at 3 µM for input COc1ccc(CCN2C(=O)N(NS(C)(=O)=O)CC2c2ccc(C)cc2)cc1 (configuration not stated) , no commentary.
58

Return inhibition at 3 µM (reported value) for this compound: COc1ccc(CCN2C(=O)N(NS(C)(=O)=O)CC2c2ccc(C(F)(F)F)cc2)cc1 (configuration not stated)
67

// fetch inhibition at 3 µM given entry COc1ccc(CCN2C(=O)N(NS(=O)(=O)Cc3ccccc3)C[C@@H]2c2ccc(OC)cc2)cc1
82
